system: UM-SCC-5 head and neck carcinoma cells; test: Development of cisplatin resistance with or without tamoxifen, UM-SCC-5 (clonogenic assay); assay type: cell-based, human; conditions: UM-SCC-5 selected in cisplatin; one hour cisplatin exposure; read-out: IC50 after the fifteenth selection

Molecule	IC50 / µM
N.N.[Cl][Pt][Cl] [cisplatin, cis-diamminedichloroplatinum (II)]	20.1
